# Test system: rape
# Test: Test B pre/postemergence rape
# Assay type: in vivo, Brassica napus
# Condition Notes: Preemergence, Rate 500 g/ha; scale of 0 to 10 where 0 is no effect and 10 is complete control
Readout Name: Rape plant response rating
Answer field: number only, no words.

Consider the reported Rape plant response rating for these molecules:
Entry "CCN(CC)C(=O)Cn1c(=O)on(C(=O)N(c2ccc(F)cc2F)C(C)C)c1=O" ; Rape plant response rating = 5

Entry "CC(C)N(C(=O)n1oc(=O)n(CCC2OCCCO2)c1=O)c1ccc(Cl)cc1" ; Rape plant response rating = 0

Entry CC(C)N(C(=O)n1oc(=O)n(C2CC3CCC2C3)c1=O)c1ccccc1 (stereo not shown) ; Rape plant response rating = 0

Entry CC1CC1n1c(=O)on(C(=O)N(c2ccc(F)cc2F)C(C)C)c1=O (stereo not shown) ; Rape plant response rating = 10

Entry "Cc1cccc(C(C)(C)C)c1-n1c(=O)on(C(=O)N(c2ccccc2)C(C)C)c1=O" ; Rape plant response rating = 0

---
Entry "CC(=O)OCCCCn1c(=O)on(C(=O)N(c2ccc(F)cc2F)C(C)C)c1=O" ; Rape plant response rating = 8

Entry "CC(C)N(C(=O)n1oc(=O)n(CC2=NCCCO2)c1=O)c1ccccc1" ; Rape plant response rating = 0

Entry "CC(C)N(C(=O)n1oc(=O)n(CCCF)c1=O)c1ccc(F)cc1F" ; Rape plant response rating = 10

Entry "CC(C)N(C(=O)n1oc(=O)n(C)c1=O)c1ccc(F)cc1F" ; Rape plant response rating = 10

Entry "CC(C)N(C(=O)n1oc(=O)n(C2CCC2)c1=O)c1ccc(F)cc1F" ; Rape plant response rating = 9

---

# Tested on: rape
# Test: Test B pre/postemergence rape
# Format: in vivo, Brassica napus
# Condition Notes: Preemergence, Rate 125 g/ha; scale 0 to 10, 0 is no effect, 10 is complete control
Readout Name: Rape plant response rating
Answer field: number only, no words.

Consider the reported Rape plant response rating for these compounds:
Entry "C=CCCCn1c(=O)on(C(=O)N(c2ccccc2)C(C)C)c1=O" ; Rape plant response rating = 2

Entry "CC(C)N(C(=O)n1oc(=O)n(CC2CCC2)c1=O)c1ccc(Cl)cc1" ; Rape plant response rating = 0

Entry "CCC=CCn1c(=O)on(C(=O)N(c2ccc(F)cc2F)C(C)C)c1=O" ; Rape plant response rating = 0

Entry "CC(C)N(C(=O)n1oc(=O)n(CCc2ccccc2)c1=O)c1ccccc1" ; Rape plant response rating = 0

Entry "COCn1c(=O)on(C(=O)N(c2ccc(F)cc2F)C(C)C)c1=O" ; Rape plant response rating = 8

---
Entry "CC(C)N(C(=O)n1oc(=O)n(CCCF)c1=O)c1ccc(F)cc1F" ; Rape plant response rating = 10

---

Entries annotated with measured Redroot pigweed plant response rating
# System: pigweed
# Test: Test B pre/postemergence pigweed
# Format: in vivo, Amaranthus retroflexus
# Condition Notes: Preemergence, Rate 62 g/ha; scale 0 to 10 (0 no effect, 10 complete control)
# Procedure: […] At the same time, these crop and weed species were also treated with postemergence applications of test chemicals formulated in the same manner. […] Treated plants and controls were maintained in a greenhouse for twelve to sixteen days, after which all species were compared to controls and visually evaluated. […]
Answer field: number only, no words.

Consider the reported Redroot pigweed plant response rating for these compounds:
Value sought: Redroot pigweed plant response rating, system pigweed, item "CN(C(=O)n1oc(=O)n(Cc2cccs2)c1=O)c1ccccc1" . Result: 0

Value sought: Redroot pigweed plant response rating, system pigweed, item "CC(C)N(C(=O)n1oc(=O)n(C[Si](C)(C)C)c1=O)c1ccc(Cl)cc1" . Result: 0

Value sought: Redroot pigweed plant response rating, system pigweed, item "CC(C)N(C(=O)n1oc(=O)n(C(C)C)c1=O)c1ccccc1" . Result: 8

---
Value sought: Redroot pigweed plant response rating, system pigweed, item CC(C)N(C(=O)n1oc(=O)n(CC(C)[N+](=O)[O-])c1=O)c1ccc(F)cc1F (centres unmarked) . Result: 0

Value sought: Redroot pigweed plant response rating, system pigweed, item CC(C)N(C(=O)n1oc(=O)n(C(C)CBr)c1=O)c1ccc(F)cc1F (centres unmarked) . Result: 0

---

Entries annotated with measured Plant response rating, Sugarbeets
# Test system: sugar beet
# Test: Test B pre/postemergence sugar beet
# Format: in vivo, Beta vulgaris
# Condition Notes: Preemergence, Rate 500 g/ha; scale of 0 to 10 where 0 is no effect and 10 is complete control

Consider the reported Plant response rating, Sugarbeets for these molecules:
Entry "CCCCCCn1c(=O)on(C(=O)N(c2ccc(F)cc2F)C(C)C)c1=O" ; Plant response rating, Sugarbeets = 5

Entry "CC(C)N(C(=O)n1oc(=O)n(Cc2ccccn2)c1=O)c1ccc(F)cc1" ; Plant response rating, Sugarbeets = 5

Entry "CC(C)N(C(=O)n1oc(=O)n(CCF)c1=O)c1ccccc1" ; Plant response rating, Sugarbeets = 9

Entry "CC(C)N(C(=O)n1oc(=O)n(Cc2nnc(Cl)s2)c1=O)c1ccccc1" ; Plant response rating, Sugarbeets = 0

Entry "CC(C)N(C(=O)n1oc(=O)n(COCc2ccccc2)c1=O)c1ccc(F)cc1" ; Plant response rating, Sugarbeets = 0

---
Entry "CC(C)N(C(=O)n1oc(=O)n(C2CCCC2)c1=O)c1ccc(F)cc1" ; Plant response rating, Sugarbeets = 8

Entry "Cc1nc(C)c(-n2c(=O)on(C(=O)N(c3ccc(F)cc3)C(C)C)c2=O)s1" ; Plant response rating, Sugarbeets = 0

---

# Tested on: surinam grass
# Test: Test B pre/postemergence surinam grass
# Format: in vivo, Brachiaria decumbens
# Condition Notes: Preemergence, Rate 125 g/ha; scale of 0 to 10 where 0 is no effect and 10 is complete control
Readout Name: Plant response rating, B. signalgrass

Entry "CC(C)N(C(=O)n1oc(=O)n(COC(=O)C(C)(C)C)c1=O)c1ccc(F)cc1" ; Plant response rating, B. signalgrass = 0

Entry CC(C)N(C(=O)n1oc(=O)n(C(C)C#N)c1=O)c1ccccc1 (centres unmarked) ; Plant response rating, B. signalgrass = 0

Entry "CC(C)N(C(=O)n1oc(=O)n(CC#N)c1=O)c1ccc(F)cc1" ; Plant response rating, B. signalgrass = 0

Entry "CC(C)N(C(=O)n1oc(=O)n(CCCCl)c1=O)c1ccc(F)cc1" ; Plant response rating, B. signalgrass = 7

---
Entry "CCn1ncc(Cn2c(=O)on(C(=O)N(c3ccc(F)cc3F)C(C)C)c2=O)c1Cl" ; Plant response rating, B. signalgrass = 6

---

# Tested on: blackgrass
# Test: Test B pre/postemergence blackgrass
# Assay type: in vivo, Alopecurus myosuroides
# Condition Notes: Preemergence, Rate 250 g/ha; scale of 0 to 10 where 0 is no effect and 10 is complete control
# Protocol: […] At the same time, these crop and weed species were also treated with postemergence applications of test chemicals formulated in the same manner. […] Treated plants and controls were maintained in a greenhouse for twelve to sixteen days, after which all species were compared to controls and visually evaluated. […]
Readout Name: Plant response rating, Blackgrass
Answer field: number only, no words.

Entry "CC(C)N(C(=O)n1oc(=O)n(-c2ccc(F)cc2F)c1=O)c1ccc(F)cc1F" ; Plant response rating, Blackgrass = 6

---
Entry "Cc1ccc(-n2c(=O)on(C(=O)N(c3ccc(F)cc3F)C(C)C)c2=O)c(C)c1" ; Plant response rating, Blackgrass = 4

Entry "Cc1ccccc1-n1c(=O)on(C(=O)N(c2ccc(F)cc2)C2CC2)c1=O" ; Plant response rating, Blackgrass = 0

Entry "Cc1ccccc1Cn1c(=O)on(C(=O)N(C)c2ccccc2)c1=O" ; Plant response rating, Blackgrass = 0

---

# Test system: smallflower flatsedge
# Test: Test B flood test smallflower flatsedge
# Assay type: in vivo, Cyperus difformis
# Condition Notes: Rate 250 g/ha, Postemergence (flood test); scale 0 to 10, 0 is no effect, 10 is complete control
Entries annotated with measured Plant response rating, S. Flatsedge
Answer field: number only, no words.

Entry Cc1ccccc1-n1c(=O)on(C(=O)N(c2c(F)cccc2F)C(C)C)c1=O [Compound 176] ; Plant response rating, S. Flatsedge = 0

Entry CC(C)N(C(=O)n1oc(=O)n(Cc2ccccc2Cl)c1=O)C1=CCCCC1 [Compound 145] ; Plant response rating, S. Flatsedge = 5

Entry CC(C)N(C(=O)n1oc(=O)n(Cc2ccccc2)c1=O)c1ccc(Cl)cc1 [Compound 106] ; Plant response rating, S. Flatsedge = 0

Kindly review the next compound as well.
Entry C=CCn1c(=O)on(C(=O)N(c2ccc(F)cc2F)C2CC2)c1=O [Compound 127] ; Plant response rating, S. Flatsedge = 0

---

# Tested on: velvetleaf
# Test: Test B pre/postemergence velvetleaf
# Format: in vivo, Abutilon theophrasti
# Condition Notes: Rate 500 g/ha, Postemergence; scale 0 to 10, 0 no effect, 10 complete control
Entries annotated with measured Velvetleaf plant response rating
Answer field: number only, no words.

Entry "Cc1nc(C)c(Cn2c(=O)on(C(=O)N(c3ccc(F)cc3F)C(C)C)c2=O)s1" ; Velvetleaf plant response rating = 3

Entry "Cc1ccccc1-n1c(=O)on(C(=O)N(c2ccc(Oc3ccccc3)cc2)C(C)C)c1=O" ; Velvetleaf plant response rating = 0

Entry "COc1cccc(C)c1-n1c(=O)on(C(=O)N(c2ccccc2)C(C)C)c1=O" ; Velvetleaf plant response rating = 5

Entry "[2H]C([2H])([2H])n1c(=O)on(C(=O)N(c2ccc(F)cc2)C(C)C)c1=O" ; Velvetleaf plant response rating = 7

Entry "CC(C)N(C(=O)n1oc(=O)n(Cc2ccccc2)c1=O)c1ccc(Cl)cc1" ; Velvetleaf plant response rating = 2
